biological target: progesterone receptor (Oryctolagus cuniculus); construct: in the cytosol obtained from estrogen-primedimmature rabbit uterus; from tissue; host or cells: uterine cytosol of estrogen-primed immature female rabbits; test: Relative binding affinity to progesterone receptor in uterine cytosol (displacement of tritium-labeled progesterone); design: species or system rabbit (estrogen-primed immature female); settings: relative to progesterone (=100); rabbit uterine cytosol
metric name: Progestin RBA

| compound | measurement target | metric name | assay value |
| --- | --- | --- | --- |
| CC(=O)[C@@]1(O)CC[C@H]2[C@@H]3C[C@H](C)C4=CC(=O)CCC4=C3[C@@H](c3ccc(N(C)C)cc3)C[C@@]21C [OH, H, α-CH3] | progesterone receptor (Oryctolagus cuniculus) | Progestin RBA | 46 |

[A] CC[C@@H]1C[C@H]2[C@@H]3C[C@H](C)C4=CC(=O)CCC4=C3[C@@H](c3ccc(N(C)C)cc3)C[C@]2(C)[C@H]1C(C)=O [Compound 15a]
[B] CC(=O)[C@@]1(O)CC[C@H]2[C@@H]3CCC4=CC(=O)CCC4=C3[C@@H](c3ccc(N(C)C)cc3)C[C@@]21C [OH, H, H]
Which item exceeds the other in Progestin RBA, A or B ? Return value: the label identifying the chosen record.
A
(A: 61, B: 15)

---

target: progesterone receptor (Oryctolagus cuniculus); construct: in the cytosol obtained from estrogen-primedimmature rabbit uterus; from tissue; host or cells: uterine cytosol of estrogen-primed immature female rabbits; test: Relative binding affinity to progesterone receptor in uterine cytosol (displacement of tritium-labeled progesterone); design: species or system rabbit (estrogen-primed immature female); conditions: ratio of RBA values for progesterone receptor to glucocorticoid receptor
metric name: P-RBA/G-RBA

| chemical structure | P-RBA/G-RBA |
| --- | --- |
| CC[C@@H]1C[C@H]2[C@@H]3C[C@@H](C)C4=CC(=O)CCC4=C3[C@@H](c3ccc(N(C)C)cc3)C[C@]2(C)[C@H]1C(C)=O | 0.45 |

[1] CC(=O)O[C@]1(C(C)=O)CC[C@H]2[C@@H]3C[C@H](C)C4=CC(=O)CCC4=C3[C@@H](c3ccc(N(C)C)cc3)C[C@@]21C
[2] CC(=O)[C@@]1(O)CC[C@H]2[C@@H]3CCC4=CC(=O)CCC4=C3[C@@H](c3ccc(N(C)C)cc3)C[C@@]21C
Task for the reader: decide whether 1 or 2 has the larger P-RBA/G-RBA. Response format: the label of the selected entry.
2

---

target: progesterone receptor (Oryctolagus cuniculus, UniProt P06186); construct: in the cytosol obtained from estrogen-primedimmature rabbit uterus; from tissue; host or cells: uterine cytosol of estrogen-primed immature female rabbits; assay: Relative binding affinity to progesterone receptor in uterine cytosol (displacement of tritium-labeled progesterone); design: species or system rabbit (estrogen-primed immature female); settings: ratio of RBA values for progesterone receptor to glucocorticoid receptor
Sequence (P06186 whole entry): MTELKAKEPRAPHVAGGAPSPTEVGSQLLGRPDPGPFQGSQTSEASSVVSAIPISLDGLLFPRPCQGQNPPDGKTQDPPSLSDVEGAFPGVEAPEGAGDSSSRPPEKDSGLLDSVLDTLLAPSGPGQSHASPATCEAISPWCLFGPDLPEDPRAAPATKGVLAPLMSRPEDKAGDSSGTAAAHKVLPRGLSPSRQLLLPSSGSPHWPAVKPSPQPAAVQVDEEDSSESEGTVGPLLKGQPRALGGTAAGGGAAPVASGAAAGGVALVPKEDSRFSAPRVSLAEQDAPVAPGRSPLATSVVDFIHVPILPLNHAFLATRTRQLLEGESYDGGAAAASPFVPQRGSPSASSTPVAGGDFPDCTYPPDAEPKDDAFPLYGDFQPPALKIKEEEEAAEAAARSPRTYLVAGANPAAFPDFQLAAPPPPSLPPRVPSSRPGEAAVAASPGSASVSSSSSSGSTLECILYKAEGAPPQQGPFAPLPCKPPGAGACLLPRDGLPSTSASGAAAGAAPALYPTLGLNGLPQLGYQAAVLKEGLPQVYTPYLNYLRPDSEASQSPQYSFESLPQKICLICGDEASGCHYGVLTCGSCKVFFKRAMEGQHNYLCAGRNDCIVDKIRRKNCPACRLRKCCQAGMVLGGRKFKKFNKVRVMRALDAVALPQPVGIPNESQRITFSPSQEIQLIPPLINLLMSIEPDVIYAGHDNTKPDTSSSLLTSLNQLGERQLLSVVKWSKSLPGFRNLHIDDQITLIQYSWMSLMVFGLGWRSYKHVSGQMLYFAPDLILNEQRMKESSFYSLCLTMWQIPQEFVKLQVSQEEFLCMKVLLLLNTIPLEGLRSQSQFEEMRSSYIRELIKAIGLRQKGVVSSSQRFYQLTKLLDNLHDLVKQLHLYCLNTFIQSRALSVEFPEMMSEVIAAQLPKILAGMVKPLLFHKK
metric name: P-RBA/G-RBA

[I] CC[C@@H]1C[C@H]2[C@@H]3C[C@H](C)C4=CC(=O)CCC4=C3[C@@H](c3ccc(N(C)C)cc3)C[C@]2(C)[C@H]1C(C)=O [Compound 15a]
[II] CC(=O)O[C@]1(C(C)=O)CC[C@H]2[C@@H]3CCC4=CC(=O)CCC4=C3[C@@H](c3ccc(N(C)C)cc3)C[C@@]21C
[III] CC[C@@H]1C[C@H]2[C@@H]3CCC4=CC(=O)CCC4=C3[C@@H](c3ccc(N(C)C)cc3)C[C@]2(C)[C@H]1C(C)=O
Returns the items ordered by P-RBA/G-RBA, from maximum to minimum. Present the labels in the sequence the task asks for.
III, I, II
(III: 0.65, I: 0.42, II: 0.24)
